Collected IC50 values appear next to each entry.
Molecular target: autophosphorylated FLT3 kinase domain (FLT3KD) (Homo sapiens)
Construct: purified and autophosphorylated FLT3 kinase domain (FLT3KD); 6xHis (C); made in house; host or cells: baculovirus, SF9 / SF21 insect cells
Assay: FLT3 kinase assay (PK/LDH coupled, NADH loss at 340 nm)
Assay type: biochemical
Conditions: Table 6; 250 μM ATP

>>> result("O=C(Nc1nc2[nH]nc(-c3ccc(O)cc3)c2s1)C1CC1 [drawing 254]")
"< 100 nM"

Now take the following compound into account.
q: Retrieve IC50 measured for O=C(Nc1nc2[nH]nc(-c3ccccc3)c2s1)c1cccc(Br)c1 [drawing 259] and print it.
a: > 1000 nM

###

# collection of IC50 values tested on wild type MET kinase (Homo sapiens, UniProt P08581)
# Sequence (P08581 25-1390): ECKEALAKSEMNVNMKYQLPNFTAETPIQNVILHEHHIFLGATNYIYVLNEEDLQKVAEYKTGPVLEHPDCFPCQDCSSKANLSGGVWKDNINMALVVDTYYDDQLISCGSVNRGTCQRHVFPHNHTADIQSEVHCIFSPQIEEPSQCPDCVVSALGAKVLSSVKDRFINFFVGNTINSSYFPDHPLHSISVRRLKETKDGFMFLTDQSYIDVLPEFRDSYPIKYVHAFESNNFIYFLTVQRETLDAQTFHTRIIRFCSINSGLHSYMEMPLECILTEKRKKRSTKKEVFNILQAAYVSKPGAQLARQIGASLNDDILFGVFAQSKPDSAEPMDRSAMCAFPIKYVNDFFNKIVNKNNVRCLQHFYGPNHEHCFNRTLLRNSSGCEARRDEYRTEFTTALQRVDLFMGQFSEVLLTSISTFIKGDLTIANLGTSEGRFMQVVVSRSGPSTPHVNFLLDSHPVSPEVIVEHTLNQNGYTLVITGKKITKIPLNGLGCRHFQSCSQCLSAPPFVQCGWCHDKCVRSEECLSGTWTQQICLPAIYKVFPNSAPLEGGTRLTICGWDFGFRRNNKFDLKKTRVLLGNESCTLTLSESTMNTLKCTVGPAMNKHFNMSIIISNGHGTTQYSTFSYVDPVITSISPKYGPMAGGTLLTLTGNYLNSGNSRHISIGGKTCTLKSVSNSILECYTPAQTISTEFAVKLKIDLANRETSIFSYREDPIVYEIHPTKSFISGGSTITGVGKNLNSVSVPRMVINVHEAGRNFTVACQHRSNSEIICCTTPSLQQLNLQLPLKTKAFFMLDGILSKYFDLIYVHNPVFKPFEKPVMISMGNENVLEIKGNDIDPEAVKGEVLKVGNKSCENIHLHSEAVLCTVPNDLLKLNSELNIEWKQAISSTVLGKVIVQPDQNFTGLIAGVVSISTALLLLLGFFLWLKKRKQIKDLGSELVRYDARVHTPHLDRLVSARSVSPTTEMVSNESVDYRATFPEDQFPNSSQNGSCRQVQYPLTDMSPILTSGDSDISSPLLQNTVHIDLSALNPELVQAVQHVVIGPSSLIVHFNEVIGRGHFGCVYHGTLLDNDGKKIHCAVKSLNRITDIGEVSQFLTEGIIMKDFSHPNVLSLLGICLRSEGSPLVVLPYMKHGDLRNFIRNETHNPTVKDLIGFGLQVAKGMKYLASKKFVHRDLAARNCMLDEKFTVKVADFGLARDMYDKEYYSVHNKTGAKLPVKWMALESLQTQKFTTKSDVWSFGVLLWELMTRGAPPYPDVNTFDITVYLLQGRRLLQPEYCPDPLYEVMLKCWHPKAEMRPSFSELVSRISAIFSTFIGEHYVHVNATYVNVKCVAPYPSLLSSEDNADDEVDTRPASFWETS

>>> result("O=C(Nc1nc2[nH]nc(-c3ccccc3Cl)c2s1)C1CC1 [drawing 276]")
"< 5 µM"
>>> result("O=C(Nc1nc2[nH]nc(-c3ccccc3Br)c2s1)C1CC1 [drawing 278]")
"5 to 20 µM"
>>> result("CC(=O)O[C@@H](C)C(=O)Nc1nc2[nH]nc(-c3ccccc3Cl)c2s1")
"> 20 µM"
>>> result("COc1cccc(OC)c1C(=O)Nc1nc2[nH]nc(-c3ccccc3Cl)c2s1")
"5 to 20 µM"
>>> result("O=C(Nc1nc2[nH]nc(-c3ccc(O)cc3)c2s1)C1CC1 [drawing 274]")
"< 5 µM"

Read the next record carefully.
q: Give measured IC50 for COc1ccc(-c2n[nH]c3nc(NC(=O)C4CC4)sc23)cc1 [drawing 280] (wild type MET kinase (Homo sapiens, UniProt P08581)).
a: > 20 µM

###

Biological target: RON kinase (M1254T activation loop mutant) (Homo sapiens, UniProt Q04912, M1254T)
Sequence (Q04912 25-1400 M1254T): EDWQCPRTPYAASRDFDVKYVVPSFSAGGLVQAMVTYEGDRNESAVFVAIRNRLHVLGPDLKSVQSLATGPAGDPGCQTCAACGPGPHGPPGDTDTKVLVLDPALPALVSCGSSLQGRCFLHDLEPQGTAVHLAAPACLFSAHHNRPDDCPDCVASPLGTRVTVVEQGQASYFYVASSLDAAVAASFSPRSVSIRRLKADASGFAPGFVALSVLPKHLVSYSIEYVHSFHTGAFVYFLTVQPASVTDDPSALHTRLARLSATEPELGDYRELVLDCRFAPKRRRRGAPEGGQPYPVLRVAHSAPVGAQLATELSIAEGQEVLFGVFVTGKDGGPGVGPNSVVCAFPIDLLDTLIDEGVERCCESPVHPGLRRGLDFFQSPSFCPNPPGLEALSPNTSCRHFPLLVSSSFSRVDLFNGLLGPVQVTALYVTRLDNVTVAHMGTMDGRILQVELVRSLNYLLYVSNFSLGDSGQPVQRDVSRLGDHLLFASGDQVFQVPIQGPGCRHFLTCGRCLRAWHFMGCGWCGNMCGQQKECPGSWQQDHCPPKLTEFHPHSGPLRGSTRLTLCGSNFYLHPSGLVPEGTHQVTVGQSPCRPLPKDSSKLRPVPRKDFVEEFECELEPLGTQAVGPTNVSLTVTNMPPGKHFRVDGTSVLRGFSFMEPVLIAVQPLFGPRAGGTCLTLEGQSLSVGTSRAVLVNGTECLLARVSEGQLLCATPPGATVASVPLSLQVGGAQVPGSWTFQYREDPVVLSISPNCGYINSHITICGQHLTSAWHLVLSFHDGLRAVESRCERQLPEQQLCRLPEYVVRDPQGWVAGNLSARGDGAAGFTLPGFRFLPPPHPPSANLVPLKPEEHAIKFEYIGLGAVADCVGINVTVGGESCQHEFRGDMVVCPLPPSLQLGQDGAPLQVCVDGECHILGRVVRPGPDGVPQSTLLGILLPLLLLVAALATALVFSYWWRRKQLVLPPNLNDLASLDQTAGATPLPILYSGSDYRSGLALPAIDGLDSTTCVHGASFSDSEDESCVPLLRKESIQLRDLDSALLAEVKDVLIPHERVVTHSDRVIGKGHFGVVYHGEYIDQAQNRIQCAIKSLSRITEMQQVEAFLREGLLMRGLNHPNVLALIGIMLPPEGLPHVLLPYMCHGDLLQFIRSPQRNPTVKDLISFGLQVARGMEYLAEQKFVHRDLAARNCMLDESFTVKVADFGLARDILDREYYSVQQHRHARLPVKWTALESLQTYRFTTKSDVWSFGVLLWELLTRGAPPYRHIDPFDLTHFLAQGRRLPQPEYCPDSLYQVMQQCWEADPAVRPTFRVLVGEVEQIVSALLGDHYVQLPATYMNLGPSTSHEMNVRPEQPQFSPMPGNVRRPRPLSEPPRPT
Test: RON Kinase-Glo assay
Details: Table 9, 60 minutes to 120 minutes at RT
pIC50: −log10 of the molar value.
observed property: pIC50

Examples with their reported pIC50 follow.
>>> result("O=C(Nc1nc2[nH]nc(-c3ccccc3Br)c2s1)C1CC1 [drawing 278]")
"< 4.70"
>>> result("O=C(Nc1nc2[nH]nc(-c3ccccc3Cl)c2s1)C1CC1 [drawing 276]")
"4.70 to 5.30"
>>> result("CC(C)C(=O)Nc1nc2[nH]nc(-c3ccccc3Cl)c2s1")
"4.70 to 5.30"
>>> result("CC(=O)O[C@@H](C)C(=O)Nc1nc2[nH]nc(-c3ccccc3Cl)c2s1")
"< 4.70"
>>> result("O=C(Nc1nc2[nH]nc(-c3ccc(O)cc3)c2s1)C1CC1 [drawing 274]")
"4.70 to 5.30"

q: Please indicate pIC50 recorded for COc1ccc(-c2n[nH]c3nc(NC(=O)C4CC4)sc23)cc1 [drawing 280]
a: < 4.70

q: Supply pIC50 value. Item: `COc1cccc(OC)c1C(=O)Nc1nc2[nH]nc(-c3ccccc3Cl)c2s1`
a: 4.70 to 5.30

###

Molecular target: autophosphorylated FLT3 kinase domain (FLT3KD) (Homo sapiens, UniProt P36888)
Construct: purified and autophosphorylated FLT3 kinase domain (FLT3KD); 6xHis (C); made in house; host or cells: baculovirus, SF9 / SF21 insect cells
Sequence (P36888 610-943 limits assumed): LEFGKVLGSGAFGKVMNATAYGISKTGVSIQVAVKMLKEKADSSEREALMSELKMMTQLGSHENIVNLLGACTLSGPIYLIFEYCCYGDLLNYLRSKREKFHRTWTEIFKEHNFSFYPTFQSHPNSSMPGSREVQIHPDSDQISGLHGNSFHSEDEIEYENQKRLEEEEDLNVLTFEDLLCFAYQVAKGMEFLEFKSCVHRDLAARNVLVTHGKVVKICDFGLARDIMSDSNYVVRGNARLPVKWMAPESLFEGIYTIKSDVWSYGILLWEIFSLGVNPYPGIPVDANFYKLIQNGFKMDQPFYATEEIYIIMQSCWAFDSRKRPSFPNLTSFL
Assay: FLT3 kinase assay (PK/LDH coupled, NADH loss at 340 nm)
Assay type: biochemical
Conditions: Table 5; 250 μM ATP
pIC50: −log10 of the molar value.
Reported pIC50 is given for each of the following compounds.

The examples below pair each entry with its known result.
>>> result("O=C(Nc1nc2[nH]nc(-c3ccccc3)c2s1)c1ccncc1 [drawing 248]")
"> 6.00"
>>> result("CC(=O)N1CCC(C(=O)Nc2nc3[nH]nc(-c4ccccc4)c3s2)CC1 [drawing 251]")
"5.00 to 6.00"
>>> result("O=C(Nc1nc2[nH]nc(-c3ccccc3)c2s1)c1cccc(Br)c1 [drawing 249]")
"5.00 to 6.00"
>>> result("COCCOCC(=O)Nc1nc2[nH]nc(-c3ccccc3)c2s1 [drawing 250]")
"5.00 to 6.00"
>>> result("O=C(Nc1nc2[nH]nc(-c3cccc(C(F)(F)F)c3)c2s1)c1ccccc1")
"5.00 to 6.00"

Let's switch to this compound now.
q: For the compound O=C(Nc1nc2[nH]nc(-c3ccc(Cl)cc3)c2s1)c1ccccc1 [drawing 246] , report pIC50.
a: > 6.00

###

Molecular target: cAbl (Mus musculus)
Construct: 2 μg/mL Abl kinase domain
Experiment: Abl kinase assay (PK/LDH coupled, NADH loss at 340 nm)
Conditions: Table 7; 10 μM ATP
pIC50: −log10 of the molar value.
observed property: pIC50

Some solved entries appear below for comparison.
>>> result("Nc1nc2[nH]nc(-c3ccccc3)c2s1")
"4.00 to 4.96"
>>> result("O=C(Nc1nc2[nH]nc(-c3ccccn3)c2s1)c1ccccc1")
"4.00 to 4.96"
>>> result("O=C(Cc1cccs1)Nc1nc2[nH]nc(-c3ccccc3)c2s1")
"> 6.00"
>>> result("O=C(Nc1nc2[nH]nc(-c3ccccc3)c2s1)c1ccco1 [drawing 264]")
"> 6.00"
>>> result("O=C(Nc1nc2[nH]nc(-c3cccc(Cl)c3)c2s1)c1ccccc1")
"5.00 to 6.00"

Pending compound:
q: State its pIC50: `COc1ccc(-c2n[nH]c3nc(NC(=O)c4ccccc4)sc23)cc1`
a: 4.00 to 4.96

###

Below, each of the molecules is paired with its reported pIC50 value.
Target: Abl Y393F (Mus musculus, UniProt P00520, Y393F)
Construct: 2 μg/mL Abl kinase domain
Sequence (P00520 242-493 Y393F limits assumed): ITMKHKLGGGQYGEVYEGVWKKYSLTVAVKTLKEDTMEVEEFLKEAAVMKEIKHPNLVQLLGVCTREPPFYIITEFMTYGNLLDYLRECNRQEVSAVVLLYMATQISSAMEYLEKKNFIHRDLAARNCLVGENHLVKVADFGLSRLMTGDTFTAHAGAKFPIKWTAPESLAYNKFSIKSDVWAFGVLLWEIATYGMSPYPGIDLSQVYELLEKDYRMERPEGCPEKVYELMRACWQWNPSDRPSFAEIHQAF
Assay: Abl Y393F kinase assay
Conditions: Table 8
pIC50: −log10 of the molar value.

>>> result("CC(=O)Nc1nc2[nH]nc(-c3ccccc3Cl)c2s1")
"< 6.00"
>>> result("COCC(=O)Nc1nc2[nH]nc(-c3ccccc3)c2s1")
"< 6.00"
>>> result("COc1ccc(-c2n[nH]c3nc(NC(=O)C4CC4)sc23)cc1 [drawing 271]")
"< 6.00"

q: Please give the documented pIC50 of `O=C(Nc1nc2[nH]nc(-c3ccccc3)c2s1)c1cccs1`
a: 6.00 to 6.30

q: For the molecule O=C(Nc1nc2[nH]nc(-c3ccccc3)c2s1)c1ccco1 [drawing 268] , give its reported pIC50.
a: > 6.30

q: Identify the reported pIC50 for the following entry. O=C(Nc1nc2[nH]nc(-c3ccccc3Br)c2s1)C1CC1 [drawing 267]
a: > 6.30

q: Specify measured pIC50 for O=C(Nc1nc2[nH]nc(-c3ccccc3Cl)c2s1)C1CC1 [drawing 266] .
a: > 6.30

q: Read the entry `O=C(Nc1nc2[nH]nc(-c3cccc(Br)c3)c2s1)c1ccccc1` and write its reported pIC50.
a: < 6.00

###

Biological target: Abl T315I kinase domain, unphosphorylated (Mus musculus, UniProt P00520, T315I)
Construct: Purified and unphosphorylated T315I Abl kinase domain (clone 5582d42PPt6p6)
Assay: Abl T315I kinase assay (PK/LDH coupled, NADH loss at 340 nm)
Conditions: Table 8; 10 μM ATP; zero phosphorylation state
The entries below come with measured IC50 values attached.

>>> result("O=C(Nc1nc2[nH]nc(-c3ccccc3)c2s1)c1cccs1")
"500 to 1000 nM"

q: Quote IC50 reported for COc1ccc(-c2n[nH]c3nc(NC(=O)C4CC4)sc23)cc1 [drawing 271] please.
a: 500 to 1000 nM

q: Provide IC50 value for the following molecule: O=C(Nc1nc2[nH]nc(-c3ccccc3Cl)c2s1)C1CC1 [drawing 266]
a: < 500 nM

q: Input `O=C(Nc1nc2[nH]nc(-c3cccc(Br)c3)c2s1)c1ccccc1` , output reported IC50.
a: > 1000 nM
